Below, each of the molecules is paired with its reported Emax value.
assayed.target: human 5-HT2C receptor (Homo sapiens)
protocol: 5-HT2C receptor-stimulated calcium mobilization (FLIPR) in CHO cells
Format: cell-based
condition.info: CHO, percentage of the response to a maximally effective concentration of 5-HT; read-out: 5-HT2C Function Emax (%)
Field: numeric (%). Do not append units.

**Query** Kindly state the measured Emax obtained for COc1cc2c(c3c1C1CCC3CC1)OC(CN)C2 (racemic) with human 5-HT2C receptor (Homo sapiens).
**Result** 100

**Query** What Emax appears in the records for this molecule with human 5-HT2C receptor (Homo sapiens)? NCC1Cc2c(Cl)cc3c(c2O1)CCC3 (single isomer, unassigned; (-)) [Example 26]
**Result** 80

**Query** Short answer please: Emax, human 5-HT2C receptor (Homo sapiens), entry Cc1cc2c(c3c1CCC3)OC(CN)C2 (single isomer, unassigned; (+)) [Example 8]
**Result** 100

**Query** Reported Emax for human 5-HT2C receptor (Homo sapiens), given COc1cc2c(c3c1C1CCC3C1)OC(CN)C2 (single isomer, unassigned) [Example 17] ?
**Result** 100

---

assayed.target: human 5-hydroxytryptamine-2C (h5-HT2C) receptor (Homo sapiens, UniProt P28335)
Construct: expressed in transfected cells; host or cells: CHO (Chinese Hamster Ovary) cells; membranes
protocol: [125I]DOI binding affinity at h5-HT2C receptor, CHO cell membranes
condition.info: [125I]DOI displacement, CHO membranes expressing h5-HT2C; read-out: 5-HT2C Affinity Ki
Readings of Ki for the listed compounds
Numeric answer only, unit nM assumed.

Worked set:
> print(dat)
                                   compound  quantitative.readout
1  NCC1Cc2ccc3c(c2O1)CCC3 (racemic) [Example 1]                    10
2  NCC1Cc2ccc3ccccc3c2O1 (single isomer, unassigned; (+)) [Example 11]                    15
3  COc1cc2c(c3c1C1CCC3CC1)OC(CN)C2 (single isomer, unassigned; (-)) [Example 21]                     4
4  NCC1Cc2ccc3c(c2O1)CCCC3 (single isomer, unassigned; (+)) [Example 5]                    17
5  NCC1Cc2cc(Cl)c3c(c2O1)CCC3 (single isomer, unassigned; (-)) [Example 30]                     6

**Query** Ki for CNCC1Cc2c(Cl)cc3c(c2O1)CCC3 (racemic) ?
**Result** 11

**Query** Would you mind telling me what Ki value was observed for NCC1Cc2c(Cl)cc3c(c2O1)CCC3 (single isomer, unassigned; (+)) [Example 27] ?
**Result** 4

**Query** Which measured Ki value corresponds to NCC1Cc2cc(Cl)c3c(c2O1)CCC3 (racemic) [Example 29] ?
**Result** 4

**Query** Looking for the measured Ki of COc1cc2c(c3c1C1CCC3C1)OC(CN)C2 (stereo not drawn) [Example 15] , can you help?
**Result** 9

---

assayed.target: human 5-hydroxytryptamine-2C (h5-HT2C) receptor (Homo sapiens)
Construct: expressed in transfected cells; host or cells: CHO (Chinese Hamster Ovary) cells; membranes
protocol: [125I]DOI binding affinity at h5-HT2C receptor, CHO cell membranes
condition.info: [125I]DOI displacement, CHO membranes expressing h5-HT2C; read-out: 5-HT2C Affinity Ki
quantity: Ki
Write down the value, and be sure its unit follows.

As a guide, the following entries are already answered.
> print(dat)
                                   compound  result
1  Cc1cc2c(c3c1CCC3)OC(CN)C2 (racemic) [Example 7]    6 nM
2  COc1cc2c(c3c1C1CCC3C1)OC(CN)C2 (single isomer, unassigned) [Example 16]   85 nM
3  COc1cc2c(c3c1C1CCC3C1)OC(CN)C2 (single isomer, unassigned) [Example 18]   82 nM
4  COc1cc2c(c3c1C1CCC3C1)OC(CN)C2 (single isomer, unassigned) [Example 17]    8 nM

**Query** So what's the measured Ki for this one? NCC1Cc2ccc3c(c2O1)CCCC3 (racemic) [Example 4]
**Result** 8 nM

---

assayed.target: human 5-HT2C receptor (Homo sapiens, UniProt P28335)
protocol: 5-HT2C receptor-stimulated calcium mobilization (FLIPR) in CHO cells
Type: cell-based
condition.info: calcium mobilization, CHO cells expressing human 5-HT2C; read-out: 5-HT2C Function EC50
Each record is given Y if its reported EC50 is strictly below 10 nM. Records at or above 10 nM are given N.

Some solved entries appear below for comparison.
> print(dat)
                                   compound                            assayed.target  qualitative.label
1  NCC1Cc2c(Cl)cc3c(c2O1)CCC3 (racemic) [Example 25]  human 5-HT2C receptor (Homo sapiens, UniProt P28335)                  Y
2  Cc1cc2c(c3c1CCC3)OC(CN)C2 (racemic) [Example 7]  human 5-HT2C receptor (Homo sapiens, UniProt P28335)                  N
3  NCC1Cc2ccc3ccccc3c2O1 (single isomer, unassigned; (-)) [Example 12]  human 5-HT2C receptor (Homo sapiens, UniProt P28335)                  Y
4  NCC1Cc2ccc3c(c2O1)CCC3 (single isomer, unassigned; (-)) [Example 3]  human 5-HT2C receptor (Homo sapiens, UniProt P28335)                  Y
5  NCC1Cc2c(Cl)cc3c(c2O1)CCC3 (single isomer, unassigned; (+)) [Example 27]  human 5-HT2C receptor (Homo sapiens, UniProt P28335)                  N

Consider the additional compound presented here.
**Query** Does this compound meet the criterion EC50 < 10 nM? Cc1cc2c(c3c1CCC3)OC(CN)C2 (single isomer, unassigned; (+)) [Example 8]
**Result** Y

---

The reader will find reported 5-HT2C Function Emax (%) values listed item by item below.
assayed.target: UniProt P28335
Sequence (P28335 33-458): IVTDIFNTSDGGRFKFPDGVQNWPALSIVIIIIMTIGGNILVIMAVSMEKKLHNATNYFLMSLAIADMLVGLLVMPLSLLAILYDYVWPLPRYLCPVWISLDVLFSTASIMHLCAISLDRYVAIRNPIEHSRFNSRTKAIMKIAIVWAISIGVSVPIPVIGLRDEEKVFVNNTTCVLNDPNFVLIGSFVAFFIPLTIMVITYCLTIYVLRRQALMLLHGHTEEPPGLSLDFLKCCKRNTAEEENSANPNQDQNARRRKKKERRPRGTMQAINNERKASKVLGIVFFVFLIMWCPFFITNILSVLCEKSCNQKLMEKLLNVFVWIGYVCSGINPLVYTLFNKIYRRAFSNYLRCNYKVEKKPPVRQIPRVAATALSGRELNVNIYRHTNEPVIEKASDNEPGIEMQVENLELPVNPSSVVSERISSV
protocol: 5-HT2C receptor-stimulated calcium mobilization (FLIPR) in CHO cells
Format: cell-based
condition.info: percentage of the response to a maximally effective concentration of 5-HT
Give a bare numeral; the unit % is implied.

Sample answers from the record:
> print(dat)
                                   compound  readout.unit  quantitative.readout
1  NCC1Cc2ccc3ccccc3c2O1 (single isomer, unassigned; (+)) [Example 11]             %                    65
2  NCC1Cc2ccc3c(c2O1)CCCC3 (single isomer, unassigned; (-)) [Example 6]             %                   100
3  NCC1Cc2ccc3ccccc3c2O1 (single isomer, unassigned; (-)) [Example 12]             %                    90

Below: the item to evaluate.
**Query** Data request, read-out 5-HT2C Function Emax (%), for COc1cc2c(c3c1C1CCC3CC1)OC(CN)C2 (single isomer, unassigned; (+)) [Example 20]
**Result** 60

---

assayed.target: human 5-HT2C receptor (Homo sapiens)
protocol: 5-HT2C receptor-stimulated calcium mobilization (FLIPR) in CHO cells
condition.info: calcium mobilization, CHO cells expressing human 5-HT2C; read-out: 5-HT2C Function EC50
Note to self: use yes only for EC50 readings below 6 nM; a reading exactly at 6 nM still gets no.

Solved entries:
> print(dat)
                                   molecule                        assayed.target  qualitative.label
1  NCC1Cc2ccc3ccccc3c2O1 (single isomer, unassigned; (+)) [Example 11]  human 5-HT2C receptor (Homo sapiens)                yes
2  COc1cc2c(c3c1C1CCC3C1)OC(CN)C2 (centres unmarked) [Example 15]  human 5-HT2C receptor (Homo sapiens)                 no
3  NCC1Cc2ccc3ccccc3c2O1 (racemic) [Example 10]  human 5-HT2C receptor (Homo sapiens)                 no
4  COc1cc2c(c3c1C1CCC3CC1)OC(CN)C2 (single isomer, unassigned; (+)) [Example 20]  human 5-HT2C receptor (Homo sapiens)                 no
5  COc1cc2c(c3c1C1CCC3CC1)OC(CN)C2 (single isomer, unassigned; (-)) [Example 21]  human 5-HT2C receptor (Homo sapiens)                yes
6  NCC1Cc2ccc3c(c2O1)CCCC3 (single isomer, unassigned; (-)) [Example 6]  human 5-HT2C receptor (Homo sapiens)                yes

**Query** Field: below-cutoff. Rule: recorded EC50 strictly less than 6 nM. Subject: COc1cc2c(c3c1C1CCC3C1)OC(CN)C2 (single isomer, unassigned) [Example 17]
**Result** no

**Query** Lab note: confirm whether the reported EC50 for this molecule is below 6 nM, equality not counting. molecule: NCC1Cc2c(ccc3c2CCCC3)O1 (racemic)
**Result** no

From: patent US7728155B2
